- target-desc: ATP-dependent translocase ABCB1 (Homo sapiens, UniProt P08183)
- Sequence (P08183 whole entry): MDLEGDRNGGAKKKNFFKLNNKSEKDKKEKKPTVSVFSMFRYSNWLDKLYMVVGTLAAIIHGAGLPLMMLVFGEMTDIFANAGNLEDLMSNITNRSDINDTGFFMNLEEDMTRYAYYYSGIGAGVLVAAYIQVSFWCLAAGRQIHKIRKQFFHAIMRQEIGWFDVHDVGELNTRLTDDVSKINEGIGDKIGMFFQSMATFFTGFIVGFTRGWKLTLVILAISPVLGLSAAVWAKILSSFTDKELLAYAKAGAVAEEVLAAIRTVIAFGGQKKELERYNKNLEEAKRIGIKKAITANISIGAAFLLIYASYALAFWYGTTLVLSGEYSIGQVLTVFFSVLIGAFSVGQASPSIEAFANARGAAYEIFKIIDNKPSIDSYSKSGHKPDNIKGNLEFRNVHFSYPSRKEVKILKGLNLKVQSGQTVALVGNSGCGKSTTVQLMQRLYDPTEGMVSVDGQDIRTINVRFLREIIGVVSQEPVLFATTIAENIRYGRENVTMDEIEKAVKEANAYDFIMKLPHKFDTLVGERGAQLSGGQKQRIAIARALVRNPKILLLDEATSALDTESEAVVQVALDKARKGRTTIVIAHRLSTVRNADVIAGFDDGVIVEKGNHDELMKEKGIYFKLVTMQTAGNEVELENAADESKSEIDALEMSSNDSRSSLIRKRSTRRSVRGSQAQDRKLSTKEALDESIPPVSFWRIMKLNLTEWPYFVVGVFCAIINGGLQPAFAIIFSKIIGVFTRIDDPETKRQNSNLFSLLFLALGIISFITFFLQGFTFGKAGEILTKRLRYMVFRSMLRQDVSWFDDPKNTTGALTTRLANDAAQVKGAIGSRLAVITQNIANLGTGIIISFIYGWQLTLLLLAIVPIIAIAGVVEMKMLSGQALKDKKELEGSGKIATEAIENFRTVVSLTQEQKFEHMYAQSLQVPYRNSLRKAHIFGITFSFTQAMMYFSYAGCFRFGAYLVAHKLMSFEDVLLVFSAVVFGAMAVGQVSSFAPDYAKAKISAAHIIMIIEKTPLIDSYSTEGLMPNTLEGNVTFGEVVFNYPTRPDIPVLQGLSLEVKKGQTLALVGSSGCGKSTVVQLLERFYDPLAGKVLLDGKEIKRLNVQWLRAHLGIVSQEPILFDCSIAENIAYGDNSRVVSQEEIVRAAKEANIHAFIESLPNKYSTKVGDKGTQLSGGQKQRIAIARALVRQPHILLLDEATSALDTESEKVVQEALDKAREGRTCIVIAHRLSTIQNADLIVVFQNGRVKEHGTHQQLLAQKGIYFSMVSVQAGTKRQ
- assay-summary: Inhibition of ABCB1 in human A2780/ADR cells assessed as reduction in calcein AM efflux pre-incubated for 30 mins before calcein AM addition and measured for 60 mins by microplate reader analysis relative to control
attribute-measured: pIC50
Field pIC50 (float): negative decimal logarithm of the concentration in molar.

Q) # query: pIC50 of entry COc1ccc(C2c3[nH]c4ccccc4c3CCN2C(=O)c2ccccc2)cc1OC (stereo not given)
A) 5.13

Q) # lookup: pIC50 of COc1ccc(C(=O)N2CCc3c([nH]c4ccccc34)C2c2cccc(Cl)c2)cc1 (stereo not given)
A) 4.72

Q) # input compound: COc1ccc(C(=O)N2CCc3c([nH]c4ccccc34)C2c2ccc(F)c(F)c2)cc1 (stereo not given) ; wanted: its pIC50
A) 5.08

Q) Name the reported pIC50 value associated with the compound O=C(c1ccccc1)N1CCc2c([nH]c3ccccc23)C1c1ccc(F)c(F)c1 (stereo not given)
A) 5.06

Q) Param item = N#Cc1cccc(C2c3[nH]c4ccccc4c3CCN2C(=O)c2ccccc2)c1 (stereo not given) ; retrieve measured pIC50.
A) 5.18

Q) Data request, read-out pIC50, for COc1ccc(C(=O)N2CCc3c([nH]c4ccccc34)C2c2ccc(Cl)c(Cl)c2)cc1OC (stereo not given)
A) 4.84

Q) For O=C(c1ccc(Cl)cc1)N1CCc2c([nH]c3ccccc23)C1c1ccc(F)c(F)c1 (stereo not given) , what is its reported pIC50?
A) 4.63

Q) What value of pIC50 has been reported for the following compound? COc1ccc(C(=O)N2CCc3c([nH]c4ccccc34)C2c2ccc(F)c(F)c2)cc1OC (stereo not given)
A) 5.54

Q) Field request: pIC50 | item: CC(C)CC1c2[nH]c3ccccc3c2CCN1C(=O)c1ccccc1 (stereo not given)
A) 4.89

Q) // lookup pIC50 for CC(=O)Nc1ccc(C2c3[nH]c4ccccc4c3CCN2C(=O)c2ccccc2)cc1 (stereo not given)
A) 5.13

###

- target-desc: ATP-dependent translocase ABCB1 (Homo sapiens, UniProt P08183)
- assay-summary: Inhibition of ABCB1 in human A2780/ADR cells assessed as reduction in calcein AM efflux pre-incubated for 30 mins before calcein AM addition and measured for 60 mins by microplate reader analysis relative to control
- Assay type: cell-based
pIC50: −log10 of the molar value.
Classify as follows. Reported pIC50 greater than or equal to 5: fulfilled. Reported pIC50 below: not fulfilled.

Q) # bool: pIC50 of COc1cccc(C2c3[nH]c4ccccc4c3CCN2C(=O)c2ccccc2)c1 (centres undefined) >= 5
A) fulfilled

Q) Textbook exercise: given the entry O=C(c1ccccc1)N1CCc2c([nH]c3ccccc23)C1c1cccc(Cl)c1 (centres undefined) , state whether its pIC50 is greater than or equal to 5.
A) not fulfilled

Q) Kindly determine if pIC50 recorded for COc1ccc(C(=O)N2CCc3c([nH]c4ccccc34)C2c2cccc(OC)c2)cc1 (centres undefined) is above or exactly 5.
A) fulfilled

###

I'd appreciate it if you could supply GI50 at 72 h values for the items below.
- assay-summary: Cytotoxicity against wild-type MDCK2 cells assessed as reduction in cell viability after 72 hrs by MTT assay
- Format: cell-based, Canis lupus familiaris
- measurement-setup: dog, wild-type MDCK2 (MDCK-II) cells
State the answer as a number, implicitly in µM.

Q) Any idea what its GI50 at 72 h is? The compound is O=C(c1ccccc1)N1CCc2c([nH]c3ccccc23)C1c1ccc(Br)cc1 (stereo not given)
A) 19.4

Q) What measured GI50 at 72 h goes with COc1cccc(C(=O)N2CCc3c([nH]c4ccccc34)C2c2ccc(Cl)c(Cl)c2)c1 (stereo not given) ?
A) 6.55

Q) Would you kindly share the measured GI50 at 72 h for "COc1ccc2c(c1)[nH]c1c(C)nccc12" ?
A) 2.3

Q) Please report the recorded GI50 at 72 h for O=C(c1ccccc1)N1CCc2c([nH]c3ccccc23)C1c1ccc(Cl)c(Cl)c1 (stereo not given) .
A) 7.29

Q) I am curious: what GI50 at 72 h value has been reported for COc1ccc2[nH]c3c(c2c1)CCN(C(=O)c1ccccc1)C3c1ccc(Cl)c(Cl)c1 (stereo not given) ?
A) 5.27
